- Tested on: corn (Zea mays)
- experiment: Test A postemergence, corn
- Assay type: in vivo
- experimental.parameters: Postemergence, 31 g ai/ha; visual injury on 0 to 100 scale (0 no effect, 100 complete control), approx. 10 days
Measured Plant response rating, Corn of individual entries
Form field (numeric): enter value without unit.

Reference set (2 entries):
>  <compound>
Cc1cc(C)c(C(=O)N2CCC(C#N)CC2)cc1NS(=O)(=O)C(F)(F)F

>  <recorded.number>
20

$$$$
>  <compound>
Cc1cc(C)c(N(COC(=O)c2ccccc2)S(=O)(=O)C(F)(F)F)cc1C1=NOC2(CCCC2)C1

>  <recorded.number>
0

$$$$

query: So what does the record say about Plant response rating, Corn for Cc1c(C(=O)N2CCOCC2)cc(N(S(=O)(=O)C(F)(F)F)S(=O)(=O)C(F)(F)F)c(C)c1F ?
result: 0

query: Need Plant response rating, Corn of Cc1cc(C)c(C2=NOC3(C2)CC(C)CC(C)C3)cc1NS(=O)(=O)C(F)(F)F (single isomer, unassigned) [Compound 167] , thanks.
result: 0

query: Look up Plant response rating, Corn for this compound: COC1CCCN(C(=O)c2cc(NS(=O)(=O)C(F)(F)F)c(C)cc2C)CC1 (stereo not drawn)
result: 30

query: Give the measured Plant response rating, Corn of Cc1cc(C)c(N(S(=O)(=O)C(F)(F)F)S(=O)(=O)C(F)(F)F)cc1C(=O)N1CCCC(F)C1 (stereo not drawn) .
result: 0

###

- Tested on: Foxtail, Giant (giant foxtail, Setaria faberi)
- experiment: Test A postemergence, Foxtail, Giant
- Type: in vivo
- experimental.parameters: Postemergence, 125 g ai/ha; visual injury approx. 10 days; 0 to 100 scale (0 no effect, 100 complete control)
reported.metric: Plant response rating, Foxtail, Giant
Provide a numeric answer; units are not to be included.

>  <compound>
COC1CCCN(C(=O)c2cc(NS(=O)(=O)C(F)(F)F)c(C)c(F)c2C)C1 (stereo not shown)

>  <experimental.target>
Foxtail, Giant (giant foxtail, Setaria faberi)

>  <Plant response rating, Foxtail, Giant>
20

$$$$
>  <compound>
CO[C@@H]1CCCN(C(=O)c2cc(N(S(=O)(=O)C(F)(F)F)S(=O)(=O)C(F)(F)F)c(C)cc2C)C1

>  <experimental.target>
Foxtail, Giant (giant foxtail, Setaria faberi)

>  <Plant response rating, Foxtail, Giant>
0

$$$$
>  <compound>
Cc1cc(C)c(C2=NOC3CCCCC23)cc1NS(=O)(=O)C(F)(F)F (stereo not shown) [Compound 131]

>  <experimental.target>
Foxtail, Giant (giant foxtail, Setaria faberi)

>  <Plant response rating, Foxtail, Giant>
10

$$$$
>  <compound>
Cc1cc(C(F)(F)F)c(NS(=O)(=O)C(F)(F)F)cc1C(=O)N(C)C

>  <experimental.target>
Foxtail, Giant (giant foxtail, Setaria faberi)

>  <Plant response rating, Foxtail, Giant>
20

$$$$
>  <compound>
Cc1cc(-c2cc(NS(=O)(=O)C(F)(F)F)c(C)cc2C)c(=O)n(C)n1

>  <experimental.target>
Foxtail, Giant (giant foxtail, Setaria faberi)

>  <Plant response rating, Foxtail, Giant>
0

$$$$

query: What value of measured Plant response rating, Foxtail, Giant is listed for Cc1cc(C)c(C2=NOC3CCCCC23)cc1NS(=O)(=O)C(F)(F)F (stereo not shown) [Compound 123] ?
result: 30

query: Item COc1cnn(C)c(=O)c1-c1cc(NS(=O)(=O)C(F)(F)F)c(C)cc1C has what recorded Plant response rating, Foxtail, Giant?
result: 0

query: What Plant response rating, Foxtail, Giant value was documented for this compound, Cc1c(NS(=O)(=O)C(F)(F)F)cc(C(=O)N2CCC(F)CC2)c(C)c1F ?
result: 0

query: Need Plant response rating, Foxtail, Giant of Cc1cc(C)c(-n2nccc(Cl)c2=O)cc1NS(=O)(=O)C(F)(F)F , thanks.
result: 20

query: Could you share which Plant response rating, Foxtail, Giant value was measured for CCn1cc(-c2cc(NS(=O)(=O)C(F)(F)F)c(C)cc2C)c(=O)n(CC)c1=O ?
result: 90

query: Which value of Plant response rating, Foxtail, Giant has been reported for COC1CCCN(C(=O)c2cc(NS(=O)(=O)C(F)(F)F)c(C)cc2C)CC1 (stereo not shown) in the records?
result: 0

query: Which Plant response rating, Foxtail, Giant value belongs to Cc1cc(C)c(N(S(=O)(=O)C(F)(F)F)S(=O)(=O)C(F)(F)F)cc1-c1cc(Cl)nn(C)c1=O ?
result: 40
